# System: Danio rerio Tg(wt1b:EGFP) embryo, pronephros
# experimental.details: glomerular separation, fold change vs DMSO control; higher = glomeruli further apart (abnormal)
# recorded.conditions: 25 µM; exposure: 24-48 hpf
Structures can show the parent of a compound that is named as a salt.
Here the recorded glomerular separation is given for each entry.

compound: CC[C@H]1OC(=O)C[C@@H](O)[C@H](C)[C@@H](O[C@@H]2O[C@H](C)[C@@H](O[C@H]3C[C@@](C)(O)[C@@H](O)[C@H](C)O3)[C@H](N(C)C)[C@H]2O)[C@@H](CC=O)C[C@@H](C)C(=O)/C=C/C(C)=C/[C@@H]1CO[C@@H]1O[C@H](C)[C@@H](O)[C@@H](OC)[C@H]1OC
glomerular separation: 0.911

compound: CC(C)NC(=N)NC(=N)Nc1ccc(Cl)cc1 [Proguanil hydrochloride]
glomerular separation: 1.2

compound: C=C(CC)C(=O)c1ccc(OCC(=O)O)c(Cl)c1Cl
glomerular separation: 1.05

compound: O=C1NCN(c2ccccc2)C12CCN(CCCC(c1ccc(F)cc1)c1ccc(F)cc1)CC2
glomerular separation: 2.89

compound: CN1CCN(C(c2ccccc2)c2ccc(Cl)cc2)CC1 (configuration not stated) [Chlorcyclizine hydrochloride]
glomerular separation: 1.13

compound: CCCC1C(=O)N2C(N(C)C)=Nc3ccc(C)cc3N2C1=O (configuration not stated)
glomerular separation: 1.16

compound: C[C@]12CC[C@@H]3c4ccc(OS(=O)(=O)O)cc4CC[C@H]3[C@@H]1CCC2=O [Estropipate]
glomerular separation: 1.27

compound: CN1CCN(CCCN2c3ccccc3Sc3ccc(Cl)cc32)CC1 [Prochlorperazine dimaleate]
glomerular separation: 1.05

compound: CCCOc1ccccc1-c1nc2[nH]nnc2c(=O)[nH]1
glomerular separation: 1.56

compound: CO[C@@]1(NC(=O)C(C(=O)O)c2ccc(O)cc2)C(=O)N2C(C(=O)O)=C(CSc3nnnn3C)CO[C@@H]21 (some centres not stated) [Moxalactam disodium salt]
glomerular separation: 0.871

compound: CC(C)(C)NCC(O)COc1cccc2c1CC(O)C(O)C2 (configuration not stated)
glomerular separation: 0.664

compound: CC(C)(C)NCC(O)c1ccc(O)c(CO)c1 (configuration not stated)
glomerular separation: 1.15

compound: CCOC(=O)C1=C[C@]2(CC)CCCN3CCc4c(n1c1ccccc41)[C@@H]32
glomerular separation: 1.08

compound: C=CCN1CCCC1CNC(=O)c1cc2nn[nH]c2cc1OC (configuration not stated) [Alizapride hydrochloride]
glomerular separation: 1.18

compound: CC(CN(C)C)CN1c2ccccc2CCc2ccccc21 (configuration not stated) [Trimipramine maleate salt]
glomerular separation: 0.996

compound: O=C(O)Cc1ccc(-c2ccccc2)cc1
glomerular separation: 4.74

compound: CC[C@H](C)C(=O)O[C@H]1CCC=C2C=C[C@H](C)[C@H](CC[C@@H]3C[C@@H](O)CC(=O)O3)[C@H]21
glomerular separation: 4.87

compound: CN[C@@H]1[C@H](O)[C@H](NC)[C@H]2O[C@@]3(O)C(=O)C[C@@H](C)O[C@H]3O[C@@H]2[C@H]1O [Spectinomycin dihydrochloride]
glomerular separation: 0.786

compound: CN(C)CCC(c1ccc(Br)cc1)c1ccccn1 (configuration not stated) [Brompheniramine maleate]
glomerular separation: 0.985

compound: CCOc1ccccc1OC(c1ccccc1)C1CNCCO1 (configuration not stated) [Reboxetine mesylate]
glomerular separation: 1.16

compound: N[C@@H]1CONC1=O
glomerular separation: 0.796

compound: CN(C)CC/C=C1/c2ccccc2Sc2ccc(Cl)cc21 [Chlorprothixene hydrochloride]
glomerular separation: 0.89

compound: CN1[C@@H]2CC[C@H]1C[C@@H](OC(=O)C(O)c1ccccc1)C2 (mixture of isomers) [Homatropine hydrobromide (R,S)]
glomerular separation: 0.957

compound: CN1CCN2c3ccccc3Cc3ccccc3C2C1 (configuration not stated) [Mianserine hydrochloride]
glomerular separation: 1.3

compound: CN1CCC(OC(c2ccccc2)c2ccccc2)CC1 [Diphenylpyraline hydrochloride]
glomerular separation: 1.02

compound: CCOC(=O)Nc1ccc2c(c1)N(C(=O)CCN1CCOCC1)c1ccccc1S2 [Moricizine hydrochloride]
glomerular separation: 0.635

compound: CNC(=O)c1c(I)c(C(=O)NCC(=O)Nc2c(I)c(C(=O)O)c(I)c(C(=O)NCCO)c2I)c(I)c(N(C)C(C)=O)c1I
glomerular separation: 0.975

compound: NS(=O)(=O)c1cc2c(cc1Cl)N=CNS2(=O)=O [Chlorothiazide]
glomerular separation: 0.855

compound: CCC(C)(C)C(=O)O[C@H]1C[C@@H](C)C=C2C=C[C@H](C)[C@H](CC[C@@H]3C[C@@H](O)CC(=O)O3)[C@H]21
glomerular separation: 4.7

compound: CN(C)c1nc(N(C)C)nc(N(C)C)n1
glomerular separation: 0.998

compound: CCC(=O)O[C@]1(C(=O)SCF)[C@H](C)C[C@H]2[C@@H]3C[C@H](F)C4=CC(=O)C=C[C@]4(C)[C@@]3(F)[C@@H](O)C[C@@]21C [Fluticasone propionate]
glomerular separation: 1.84

compound: CC(N/C(=N\C#N)Nc1ccncc1)C(C)(C)C (configuration not stated)
glomerular separation: 0.881
